Tested on: Saos-2 cell line
Experiment: MTT assay, toxicity (cell viability), Saos-2
Format: cell-based
Conditions: Saos-2, 24 h, 1 μM
measured_metric: % Cell viability (%)
Output spec: scalar in %, unitless text.

Ask: Param readout= % Cell viability; system= Saos-2 cell line; entry= NC(=O)CN(CCc1ccccc1F)C(=O)C1CC(=O)N(CCc2ccc(Cl)cc2Cl)CC(=O)N1CCC(c1ccccc1)c1ccccc1 (stereo not drawn) [I.9] ; returns value.
Reply: 100

Ask: Request - read-out % Cell viability | tested on Saos-2 cell line | molecule NCCCCC(NC(=O)CN(CCc1ccc(Cl)cc1Cl)C(=O)C1CC(=O)N(CCc2ccc(Cl)cc2Cl)CC(=O)N1CCC(c1ccccc1)c1ccccc1)C(N)=O (stereo not drawn) [IIa.2]
Reply: 98

Ask: Hello, I am looking for reported % Cell viability with Saos-2 cell line for COc1ccccc1CCN(CC(N)=O)C(=O)C1CC(=O)N(CCc2ccc(Cl)cc2Cl)CC(=O)N1CCC(c1ccccc1)c1ccccc1 (stereo not drawn) [I.7] . Could you help?
Reply: 95
